Known GFP response vs DMSO of a selection of compounds
# protocol.description: TOR pathway GLN3 branch reporter MEP2-GFP changes – S. cerevisiae, multiplex flow cytometry, MLPCN library, primary screen (AID 2016);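 note: median GFP fluorescence of the barcode-gated MEP2-GFP cells per well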
# reported.conditions: S. cerevisiae MEP2-GFP strain, 3 h, at 10 µM, stronger effect = higher value, 100% = DMSO control level
Out of some 330,000 compounds screened, about 1,700 (0.52%) were called active. Shown is part of a subset that was picked to be rich in actives.
assay.endpoint: GFP response vs DMSO (%)

> print(dat)
                                   compound  assay.value
1  CCC(C)(C)NC(=O)C(c1ccc(O)cc1)N(C(=O)Cn1nnc2ccccc21)c1ccc(NC(C)=O)cc1 (centres undefined)         93.5
2  O=C(CNC(=O)[C@@H]1Cc2ccccc2CN1)NC1CCCCC1         99.4
3  CCCCCn1c(=O)[nH]c2cc(C(=O)NCCCN3CCCCC3C)ccc2c1=O (centres undefined)          127
4  COc1ccc(Cn2c(C)c(C)c(C#N)c2NC(=O)Nc2ccc(F)cc2)cc1         99.5
